Test system: Haemophilus influenzae Holt
test-protocol: MIC, standard agar-dilution assay, Haemophilus influenzae Holt
Assay type: cell-based
applied-conditions: Haemophilus influenzae
assay-readout: MIC (µg/mL)

[[record]]
compound = "CCC1OC(=O)CC(O)C(C)C(OC2OC(C)C(OC3CC(C)(O)C(O)C(C)O3)C(N(C)C)C2O)C(CCOC(=O)c2nn(CC)c3cc4c(cc3c2=O)OCO4)CC(C)C(=O)C=CC(C)=CC1COC1OC(C)C(O)C(OC)C1OC (centres unmarked) [Compound 10, 20-DH-20-O-Cinoxacinyltylosin]"
assay_readout = "MIC"
display_unit = "µg/mL"
cmp = "="
readout_value = 128

[[record]]
compound = "CCC1OC(=O)CC(O)C(C)C(OC2OC(C)C(OC3CC(C)(O)C(O)C(C)O3)C(N(C)C)C2O)C(CCOc2cccc(N(C)C)c2)CC(C)C(=O)C=CC(C)=CC1COC1OC(C)C(O)C(OC)C1OC (centres unmarked) [Compound 16]"
assay_readout = "MIC"
display_unit = "µg/mL"
cmp = "="
readout_value = 128

[[record]]
compound = "CCC1OC(=O)CC(O)C(C)C(OC2OC(C)C(O)C(N(C)C)C2O)C(CCOC(=O)COc2ccccc2)CC(C)C(=O)C=CC(C)=CC1COC1OC(C)C(O)C(OC)C1OC (centres unmarked) [Compound 26, 20-DH-20-O-(Phenoxyacetyl)desmycosin]"
assay_readout = "MIC"
display_unit = "µg/mL"
cmp = "="
readout_value = 8

[[record]]
compound = "CCC1OC(=O)CC(O)C(C)C(OC2OC(C)C(OC3CC(C)(O)C(O)C(C)O3)C(N(C)C)C2O)C(CCN2C(=O)c3ccccc3C2=O)CC(C)C(=O)C=CC(C)=CC1COC1OC(C)C(O)C(OC)C1OC (centres unmarked) [Compound 1, 20-DH-DO-20-N-Phthalimidotylosin]"
assay_readout = "MIC"
display_unit = "µg/mL"
cmp = ">"
readout_value = 128

[[record]]
compound = "CCC1OC(=O)CC(O)C(C)C(OC2OC(C)C(O)C(N(C)C)C2O)C(CC2Nc3ccccc3S2)CC(C)C(=O)C=CC(C)=CC1COC1OC(C)C(O)C(OC)C1OC (centres unmarked) [Compound 75]"
assay_readout = "MIC"
display_unit = "µg/mL"
cmp = "="
readout_value = 16


---

Attribute: MIC
Test system: Staphylococcus epidermidis EPI1
test-protocol: MIC, standard agar-dilution assay, Staphylococcus epidermidis EPI1
Assay type: cell-based
applied-conditions: Staphylococcus epidermidis, EPI1
assay-readout: MIC (µg/mL)

[[record]]
molecule = "CCC1OC(=O)CC(O)C(C)C(OC2OC(C)C(OC3CC(C)(O)C(O)C(C)O3)C(N(C)C)C2O)C(CCOC(=O)COc2ccccc2)CC(C)C(=O)C=CC(C)=CC1COC1OC(C)C(O)C(OC)C1OC (stereo not shown)"
system_tested = "Staphylococcus epidermidis EPI1"
assay_readout = "MIC"
display_unit = "µg/mL"
readout_value = 0.5

[[record]]
molecule = "CCC1OC(=O)CC(O)C(C)C(OC2OC(C)C(O)C(N(C)C)C2O)C(CCO[N+](=O)[O-])CC(C)C(=O)C=CC(C)=CC1COC1OC(C)C(O)C(OC)C1OC (stereo not shown)"
system_tested = "Staphylococcus epidermidis EPI1"
assay_readout = "MIC"
display_unit = "µg/mL"
readout_value = 0.25

[[record]]
molecule = "CCC1OC(=O)CC(O)C(C)C(OC2OC(C)C(O)C(N(C)C)C2O)C(CCOC(=O)COc2ccccc2)CC(C)C(=O)C=CC(C)=CC1COC1OC(C)C(O)C(OC)C1OC (stereo not shown)"
system_tested = "Staphylococcus epidermidis EPI1"
assay_readout = "MIC"
display_unit = "µg/mL"
readout_value = 0.25

[[record]]
molecule = "CCC1OC(=O)CC(O)C(C)C(OC2OC(C)C(OC3CC(C)(O)C(O)C(C)O3)C(N(C)C)C2O)C(CCOc2ccccc2)CC(C)C(=O)C=CC(C)=CC1COC1OC(C)C(O)C(OC)C1OC (stereo not shown)"
system_tested = "Staphylococcus epidermidis EPI1"
assay_readout = "MIC"
display_unit = "µg/mL"
readout_value = 1


---

Test system: Mycoplasma synoviae
test-protocol: MIC, broth-dilution microtiter test, Mycoplasma synoviae
Type: cell-based
applied-conditions: Mycoplasma synoviae; broth-dilution microtiter
Each record here notes measured MIC.
assay-readout: MIC (µg/mL)

[[record]]
compound = "CCC1OC(=O)CC(O)C(C)C(OC2OC(C)C(O)C(N(C)C)C2O)C(CCOc2ccc(-c3ccccc3)cc2)CC(C)C(=O)C=CC(C)=CC1COC1OC(C)C(O)C(OC)C1OC (stereo not shown)"
readout_value = 0.39

[[record]]
compound = "CC[C@H]1OC(=O)C[C@@H](O)[C@H](C)[C@@H](O[C@@H]2O[C@H](C)[C@H](O)[C@H](N(C)C)[C@H]2O)[C@@H](CCOc2ccccc2)C[C@@H](C)C(=O)/C=C/C(C)=C/[C@@H]1COC1O[C@H](C)[C@@H](O)[C@@H](OC)[C@H]1OC (stereo partly shown)"
readout_value = 1.56

[[record]]
compound = "CCC1OC(=O)CC(O)C(C)C(OC2OC(C)C(O)C(N(C)C)C2O)C(CCS(=O)(=O)c2ccc(C)cc2)CC(C)C(=O)C=CC(C)=CC1COC1OC(C)C(O)C(OC)C1OC (stereo not shown)"
readout_value = 0.78

[[record]]
compound = "CCC1OC(=O)CC(O)C(C)C(OC2OC(C)C(O)C(N(C)C)C2OC(C)=O)C(CCOc2ccccc2)CC(C)C(=O)C=CC(C)=CC1COC1OC(C)C(O)C(OC)C1OC (stereo not shown)"
readout_value = 3.12


---

System: Pasteurella multocida 17E
test-protocol: MIC, broth-dilution microtiter test, Pasteurella multocida 17E
Format: cell-based
applied-conditions: Pasteurella multocida 17E; bovine isolate; broth-dilution microtiter
MIC values by entry
assay-readout: MIC (µg/mL)

[[record]]
compound = "CCC1OC(=O)CC(O)C(C)C(OC2OC(C)C(O)C(N(C)C)C2O)C(CCOc2cccnc2)CC(C)C(=O)C=CC(C)=CC1COC1OC(C)C(O)C(OC)C1OC (stereo not drawn) [Compound 49, 20-DH-20-O-(Pyridin-3-yl)desmycosin]"
system_tested = "Pasteurella multocida 17E"
display_unit = "µg/mL"
readout_value = 25

[[record]]
compound = "CCC1OC(=O)CC(O)C(C)C(OC2OC(C)C(O)C(N(C)C)C2O)C(CCOc2nnc(-c3ccccc3)c(-c3ccccc3)n2)CC(C)C(=O)C=CC(C)=CC1COC1OC(C)C(O)C(OC)C1OC (stereo not drawn) [Compound 50]"
system_tested = "Pasteurella multocida 17E"
display_unit = "µg/mL"
readout_value = 25

[[record]]
compound = "CCC1OC(=O)CC(O)C(C)C(OC2OC(C)C(OC3CC(C)(O)C(O)C(C)O3)C(N(C)C)C2O)C(CCOc2ccccc2)CC(C)C(=O)C=CC(C)=CC1COC1OC(C)C(O)C(O)C1OC (stereo not drawn) [Compound 53, 20-DH-20-O-Phenylmacrocin]"
system_tested = "Pasteurella multocida 17E"
display_unit = "µg/mL"
readout_value = 25

[[record]]
compound = "CCC1OC(=O)CC(O)C(C)C(OC2OC(C)C(O)C(N(C)C)C2O)C(CCS(=O)(=O)c2ccc(C)cc2)CC(C)C(=O)C=CC(C)=CC1COC1OC(C)C(O)C(OC)C1OC (stereo not drawn) [Compound 46]"
system_tested = "Pasteurella multocida 17E"
display_unit = "µg/mL"
readout_value = 12.5

[[record]]
compound = "CCC(=O)OC1C(OC2C(CCCl)CC(C)C(=O)C=CC(C)=CC(COC3OC(C)C(O)C(OC)C3OC)C(CC)OC(=O)CC(O)C2C)OC(C)C(O)C1N(C)C (stereo not drawn) [Compound 69]"
system_tested = "Pasteurella multocida 17E"
display_unit = "µg/mL"
readout_value = 25

[[record]]
compound = "CC[C@H]1OC(=O)C[C@@H](O)[C@H](C)[C@@H](O[C@@H]2O[C@H](C)[C@H](O)[C@H](N(C)C)[C@H]2O)[C@@H](CCOc2ccccc2)C[C@@H](C)C(=O)/C=C/C(C)=C/[C@@H]1COC1O[C@H](C)[C@@H](O)[C@@H](OC)[C@H]1OC (stereo partly drawn) [Compound 33, 20-DH-20-O-Phenyldesmycosin]"
system_tested = "Pasteurella multocida 17E"
display_unit = "µg/mL"
readout_value = 12.5

[[record]]
compound = "CCC1OC(=O)CC(O)C(C)C(OC2OC(C)C(O)C(N(C)C)C2O)C(CCOc2ncnc3ccccc23)CC(C)C(=O)C=CC(C)=CC1COC1OC(C)C(O)C(OC)C1OC (stereo not drawn) [Compound 51, 20-DH-20-O-(Quinazolin-4-yl)desmycosin]"
system_tested = "Pasteurella multocida 17E"
display_unit = "µg/mL"
readout_value = 12.5

[[record]]
compound = "CCC(=O)OC1C(OC2C(CCN3C(=O)c4ccccc4C3=O)CC(C)C(=O)C=CC(C)=CC(COC3OC(C)C(O)C(OC)C3OC)C(CC)OC(=O)CC(O)C2C)OC(C)C(O)C1N(C)C (stereo not drawn) [Compound 65]"
system_tested = "Pasteurella multocida 17E"
display_unit = "µg/mL"
readout_value = 25

[[record]]
compound = "CCC1OC(=O)CC(O)C(C)C(OC2OC(C)C(O)C(N(C)C)C2O)C(CCOc2ccc(CN3CCCCCC3)cc2)CC(C)C(=O)C=CC(C)=CC1COC1OC(C)C(O)C(OC)C1OC (stereo not drawn) [Compound 42]"
system_tested = "Pasteurella multocida 17E"
display_unit = "µg/mL"
readout_value = 12.5

